- systemName: PGL-3 condensates (Caenorhabditis elegans, UniProt G5EBV6)
- Sequence (G5EBV6 whole entry): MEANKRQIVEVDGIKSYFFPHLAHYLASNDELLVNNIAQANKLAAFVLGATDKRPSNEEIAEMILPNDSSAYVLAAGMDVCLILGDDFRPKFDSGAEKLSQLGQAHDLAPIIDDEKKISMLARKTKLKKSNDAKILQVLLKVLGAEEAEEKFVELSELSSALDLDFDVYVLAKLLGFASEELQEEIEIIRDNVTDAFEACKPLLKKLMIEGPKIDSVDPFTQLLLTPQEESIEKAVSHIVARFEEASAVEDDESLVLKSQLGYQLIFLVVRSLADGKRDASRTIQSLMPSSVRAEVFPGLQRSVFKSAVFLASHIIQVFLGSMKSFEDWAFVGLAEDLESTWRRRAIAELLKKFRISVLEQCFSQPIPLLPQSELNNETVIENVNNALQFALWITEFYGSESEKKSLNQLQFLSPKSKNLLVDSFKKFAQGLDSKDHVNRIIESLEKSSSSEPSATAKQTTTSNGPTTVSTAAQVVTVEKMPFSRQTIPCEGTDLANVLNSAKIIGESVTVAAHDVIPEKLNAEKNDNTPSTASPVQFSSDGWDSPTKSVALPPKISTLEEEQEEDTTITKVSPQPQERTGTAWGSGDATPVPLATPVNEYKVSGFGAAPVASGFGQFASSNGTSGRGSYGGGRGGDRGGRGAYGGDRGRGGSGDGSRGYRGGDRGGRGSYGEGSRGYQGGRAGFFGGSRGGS
- assayDetails: Fluorescence imaging of dye partitioning in PGL-3 condensates (I-in, I-out)
- Type: physicochemical
- testParameters: inside PGL-3 condensate; 10 μM dye, 5 μM protein; image 3; one day of experiments
- Experimental: All dye-stocks were stored as 1 mM solutions in 100% DMSO. The dyes were dissolved in dilution buffer (DB: 14.7 mM Tris, pH 7.25, 1 mM DTT) to yield 11.765 μM dye in 1.1765 DMSO. 17 μl of dye was distributed in a 384 well non-binding plate (Greiner). […] A spinning disk confocal microscope was used to acquire images of the samples. […] The laser power was set to 20% and the exposure times were adjusted to the fluorescence emission intensity specific for each dye. […]
So basically: Intensity Inside with Dye 3 at 900 or higher? That is label 1. Lower than 900? That is label 0.

O=C1OC2(c3ccc(O[C@@H]4O[C@H](CO)[C@H](O)[C@H](O)[C@H]4O)cc3Oc3cc(O[C@@H]4O[C@H](CO)[C@H](O)[C@H](O)[C@H]4O)ccc32)c2ccccc21 [Dye 12, Fluorescein di(β-D-galacto-pyranoside)]
label 0
N#CC1=c2cc3c4c(c2Oc2c1cc1c5c2CCCN5CCC1)CCC[N+]=4CCC3
label 0
O=C(O)c1cc2cc3c4c(c2oc1=O)CCCN4CCC3
label 1

Q: Form field: Intensity Inside with Dye 3 at least 900? Entry: O=c1cc(C(F)(F)F)c2ccc(O)cc2o1 [Dye 2, 7-Hydroxy-4-(trifluoromethyl)-coumarin]
A: label 0

Q: Quick check, Intensity Inside with Dye 3 >= 900? COC(=O)c1ccccc1-c1c2ccc(=N)cc-2oc2cc(N)ccc12.Cl
A: label 1

Q: Please indicate if the recorded Intensity Inside with Dye 3 for CCN(CC)c1ccc2c(-c3ccccc3C(=O)O)c3ccc(=[N+](CC)CC)cc-3oc2c1 meets or exceeds 900.
A: label 1

Q: API: above_or_equal(metric=Intensity Inside with Dye 3, cutoff=900) for item CC(=O)N[C@H]1[C@H](Oc2ccc3c(c2)Oc2cc(O)ccc2C32OC(=O)c3ccccc32)O[C@H](CO)[C@H](O)[C@@H]1O (some centres unmarked)
A: label 1

Q: Hi team, for N=C(N)c1ccc(-c2cc3ccc(C(=N)N)cc3[nH]2)cc1 , is the recorded Intensity Inside with Dye 3 at or above 900?
A: label 0

Q: Form field: Intensity Inside with Dye 3 at least 900? Entry: CC(=O)Oc1ccc2c(c1)Oc1cc(OC(C)=O)ccc1C21OC(=O)c2ccccc21 [Dye 9, Fluorescein diacetate]
A: label 0

Q: Hello, I need to know if CC(=O)c1cc2cc3c4c(c2oc1=O)CCCN4CCC3 has measured Intensity Inside with Dye 3 not below 900. Thanks!
A: label 0

Q: Exam item: decide whether the reported Intensity Inside with Dye 3 for O=C1OC2(c3ccc(O)cc3Oc3cc(O)ccc32)c2ccccc21 is at least 900.
A: label 1
